Biological target: CYP27B1_C163 (Homo sapiens, UniProt O15528)
Construct: endogenous in cells; host or cells: 22Rv1
Sequence (O15528 whole entry): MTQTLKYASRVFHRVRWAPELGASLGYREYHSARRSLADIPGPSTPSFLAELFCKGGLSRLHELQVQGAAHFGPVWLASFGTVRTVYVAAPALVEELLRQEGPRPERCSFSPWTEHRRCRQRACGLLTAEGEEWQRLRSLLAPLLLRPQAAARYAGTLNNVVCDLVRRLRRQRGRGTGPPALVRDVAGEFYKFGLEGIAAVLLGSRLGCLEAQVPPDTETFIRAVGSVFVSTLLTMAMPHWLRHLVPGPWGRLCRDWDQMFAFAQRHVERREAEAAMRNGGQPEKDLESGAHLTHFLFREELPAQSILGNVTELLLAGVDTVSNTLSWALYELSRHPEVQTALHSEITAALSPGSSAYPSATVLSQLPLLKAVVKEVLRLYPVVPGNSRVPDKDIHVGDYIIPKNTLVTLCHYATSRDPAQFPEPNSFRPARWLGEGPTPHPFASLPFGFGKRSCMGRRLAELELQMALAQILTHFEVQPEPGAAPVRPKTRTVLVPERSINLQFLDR
Assay: IA-DTB cysteine engagement
Format: binding
Settings: 22Rv1 cells, 20 μM probe, 1 h, relative to DMSO
test-readout: % engagement CYP27B1_C163 (%)
# output: bare number, implied unit %

As a guide, the following entries are already answered.
[[record]]
molecule = "C=CC(=O)N1C[C@H](c2ccc(Br)cc2)[C@H]1C(=O)Nc1cccc2cccnc12 [MY-3B]"
unit_descriptor = "%"
reported_measurement = 100

[[record]]
molecule = "C=CC(=O)N1C[C@H](c2ccc(Br)cc2)[C@@H]1C(=O)Nc1cccc2cccnc12"
unit_descriptor = "%"
reported_measurement = 89

[[record]]
molecule = "C=CC(=O)N1C[C@@H](c2ccc(Br)cc2)[C@H]1C(=O)Nc1cccc2cccnc12"
unit_descriptor = "%"
reported_measurement = 73


As a next step, examine the molecule that follows.
The value of % engagement CYP27B1_C163 measured for the molecule C=CC(=O)N1C[C@H](c2ccc(Br)cc2)[C@H]1C(=O)Nc1cccc2cccnc12 [MY-3A] turned out to be 73.5
